The reader will find reported Purity Insulin Glargine values listed item by item below.
- assay.target: pre-pro-insulin glargine

>  <protein>
trypsin variant SEQ ID NO: 56 (protein) IVGGYTCAANSIPYQVSLNSGSHRCGGSLINSQWVVSAAHCYKSRIQVRLGEHNINVLEGNEQFINAAKIITHPNFNGNTLDNDIMLIKLSSPATLNSRVATVSLPRSCAAAGTECLISGWGNTKSSGSSYPSLLQCLKAPVLSDSSCKSSYPGQITGNMICVGFLEGGKDACQGDSGGPVVCNGQLQGIVSSGYGCAQKNKPGVYTKVCNYVNWIQQTIAAN

>  <Purity Insulin Glargine>
85.3 area %

$$$$
>  <protein>
trypsin variant SEQ ID NO: 57 (protein) IVGGYTCAANSIPYQVSLNSGSHRCGGSLINSQWVVSAAHCYKSRIQVRLGEHNIHVLEGNEQFINAAKIITHPNFNGNTLDNDIMLIKLSSPATLNSRVATVSLPRSCAAAGTECLISGWGNTKSSGSSYPSLLQCLKAPVLSDSSCKSSYPGQITGNMICVGFLEGGKDACQGDSGGPVVCNGQLQGIVSSGYGCAQKNKPGVYTKVCNYVNWIQQTIAAN

>  <Purity Insulin Glargine>
87.5 area %

$$$$

Okay, now this protein:
Query block: Return reported Purity Insulin Glargine. Input protein: trypsin variant SEQ ID NO: 19 (protein) IVGGYTCAANSIPYQVSLNSGSHRCGGSLINSQWVVSAAHCYKSRIQVRLGEHNIDVLEGNEQFINAAKIITHPNFNGNTLDNDIMLIKLSSPATLNSRVATVSLPRSCAAAGTECLISGWGNTCSSGSSYPSLLQCLKAPVLSDSSCKSSYPGQITGNMICVGFLEGGKDACQGDSGGPVVCNGQLQGIVSSGYGCAQKNKPGVYTKVCNYVNWIQQTIAAN
Result block: 81 area %

# credit: patent US20230303994
